MEASURED TARGET: NADPH oxidase 4 (Homo sapiens) (UniProt Q9NPH5)
Sequence (Q9NPH5 whole entry, looked up): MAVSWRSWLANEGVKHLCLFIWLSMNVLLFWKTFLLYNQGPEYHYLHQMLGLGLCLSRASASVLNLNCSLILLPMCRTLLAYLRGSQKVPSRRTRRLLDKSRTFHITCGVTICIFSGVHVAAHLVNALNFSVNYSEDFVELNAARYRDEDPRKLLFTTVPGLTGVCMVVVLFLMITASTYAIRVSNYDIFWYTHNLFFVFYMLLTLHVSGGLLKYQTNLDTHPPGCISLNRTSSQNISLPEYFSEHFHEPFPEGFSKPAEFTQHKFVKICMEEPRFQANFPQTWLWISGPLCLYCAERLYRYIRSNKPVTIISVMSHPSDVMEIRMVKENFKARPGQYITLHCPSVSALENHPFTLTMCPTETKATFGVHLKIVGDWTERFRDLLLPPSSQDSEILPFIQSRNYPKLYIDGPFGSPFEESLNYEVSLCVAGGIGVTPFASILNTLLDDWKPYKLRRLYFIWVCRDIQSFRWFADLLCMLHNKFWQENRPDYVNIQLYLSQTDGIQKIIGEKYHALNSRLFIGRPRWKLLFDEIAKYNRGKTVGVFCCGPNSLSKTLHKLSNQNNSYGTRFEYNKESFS
TEST PROTOCOL: compounds shifting NOX4 Amplex Red fluorescence – cell-based, HEK293-NOX4, tetracycline-induced, NOX inhibitor project, primary screen (AID 1160)
CONDITION SUMMARY: HEK293-NOX4, Amplex Red H2O2 fluorescence, 45 min; higher = more signal, called active from +8 up or from −8 down
REPORTED METRIC: z-score

[[record]]
molecule = "C=C(CCCC)C(=O)CC[C@H](OC(=O)c1ccccc1-c1ccccc1C(=O)O)c1ccc(OCCO)cc1"
reported_metric = "z-score"
recorded_value = -0.406

[[record]]
molecule = "C=CCC(OC(C)=O)[C@@H]1[C@@H](N(Cc2cccc3ccccc23)C(=O)Cc2ccc(OC)cc2)c2cc(OCCCO)ccc2N1C(=O)c1ccc2ccccc2c1 (stereo partly specified)"
reported_metric = "z-score"
recorded_value = -1.24

[[record]]
molecule = "O=C1C2C=CC(C(O)c3ccc([N+](=O)[O-])cc3)N(Nc3ccccc3F)C2C(=O)N1c1ccccc1 (stereo unspecified)"
reported_metric = "z-score"
recorded_value = -4.13

[[record]]
molecule = "COc1ccc(NN2C(C(O)c3ccc(I)cc3)C=CC3C(=O)N(C4CCCCC4)C(=O)C32)cc1 (stereo unspecified)"
reported_metric = "z-score"
recorded_value = -0.672

[[record]]
molecule = "COc1ccc([Si](C)(C)[C@H]2[C@H](CCO)O[C@@]3(C(=O)N(Cc4ccc(NC(=O)[C@H](C)O)cc4)c4ccccc43)[C@@H]2C)cc1"
reported_metric = "z-score"
recorded_value = 1.39

[[record]]
molecule = "CC1CC/C=C\\[C@H]2OC34C=CCN(Cn5nnc6ccccc65)C(=O)[C@H]3N(CCCCCCO)C(=O)[C@@H]4C2C(=O)O1 (stereo partly specified)"
reported_metric = "z-score"
recorded_value = 0.515

[[record]]
molecule = "CCOC(=O)C1=CCC(c2cc3ccccc3[nH]2)N(CCN2CC(C(=O)OCC)=CCC2c2cc3ccccc3[nH]2)C1 (stereo unspecified)"
reported_metric = "z-score"
recorded_value = -0.315

[[record]]
molecule = "CC(C)N1C(=O)c2ccccc2[C@@H](C(=O)NCC(F)(F)F)[C@@H]1c1ccc(CO)cc1"
reported_metric = "z-score"
recorded_value = 0.912

[[record]]
molecule = "C=CCNC(=O)[C@H]1[C@@H]2C(=O)O[C@@H](c3ccccc3)[C@@H](c3ccccc3)N2[C@@H](c2ccc(OCCO)cc2)[C@]12C(=O)Nc1ccccc12"
reported_metric = "z-score"
recorded_value = 0.841

[[record]]
molecule = "C[C@@H]1ON(c2ccccc2)[C@H](c2ccccc2)[C@H]1C(=O)O"
reported_metric = "z-score"
recorded_value = 0.24

[[record]]
molecule = "NC(=O)NCC#Cc1ccc2c(c1)[C@]1(C(=O)N2)[C@H](c2ccc(OCCO)cc2)N2[C@H](c3ccccc3)[C@H](c3ccccc3)OC(=O)[C@H]2[C@@H]1C(=O)NC[C@H](O)c1ccccc1"
reported_metric = "z-score"
recorded_value = 0.314

